The origin of these recorded values is patent US20200102387A1.

molecular target: T1, mouse SIRPα-Fc (mouse); assay: BLI Octet, antigen-Fc on biosensor;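 note: antigen captured on the biosensor tip and then immersed in solutions of the test antibodies, which act as the analyte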
T1 construct: a signal peptide may be part of the entry; also called Ms; Ms SIRPα-Fc
T1 sequence (chain, as listed by the source limits assumed): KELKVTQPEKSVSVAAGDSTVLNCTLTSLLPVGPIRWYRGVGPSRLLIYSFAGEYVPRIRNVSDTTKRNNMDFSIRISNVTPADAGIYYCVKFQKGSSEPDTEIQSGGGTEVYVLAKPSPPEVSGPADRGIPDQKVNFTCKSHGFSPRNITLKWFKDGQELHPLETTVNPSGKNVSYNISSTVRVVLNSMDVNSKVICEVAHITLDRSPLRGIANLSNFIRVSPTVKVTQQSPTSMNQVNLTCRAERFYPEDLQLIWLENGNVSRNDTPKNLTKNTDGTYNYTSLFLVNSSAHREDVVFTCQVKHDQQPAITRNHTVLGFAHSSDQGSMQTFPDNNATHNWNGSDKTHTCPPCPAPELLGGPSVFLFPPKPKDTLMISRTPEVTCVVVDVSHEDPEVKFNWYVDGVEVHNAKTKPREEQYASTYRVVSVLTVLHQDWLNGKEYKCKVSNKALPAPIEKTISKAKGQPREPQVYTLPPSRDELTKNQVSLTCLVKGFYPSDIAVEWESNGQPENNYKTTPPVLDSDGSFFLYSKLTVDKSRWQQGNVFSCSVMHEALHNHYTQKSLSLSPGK
QUANTITY MEASURED: binding result

For orientation, consider the following solved cases.
[[record]]
binder = "SIRPAB-8 (antibody, human IgG1, kappa, V domains shown) VH: QVQLVQSGAEVKKPGASVKVSCKASGYTFTSYGISWVRQAPGQGLEWMGWISPYNGNTNYAQKLQGRVTMTTDTSTSTAYMELRSLRSDDTAVYYCAREAGSSWYDFDLWGRGTLVTVSS VL: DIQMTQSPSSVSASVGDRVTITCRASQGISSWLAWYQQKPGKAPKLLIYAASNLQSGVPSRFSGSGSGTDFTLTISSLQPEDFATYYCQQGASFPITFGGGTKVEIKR"
quantity_measured = "binding result"
val = "no binding"

[[record]]
binder = "SIRPAB-9 (antibody, human IgG1, kappa, V domains shown) VH: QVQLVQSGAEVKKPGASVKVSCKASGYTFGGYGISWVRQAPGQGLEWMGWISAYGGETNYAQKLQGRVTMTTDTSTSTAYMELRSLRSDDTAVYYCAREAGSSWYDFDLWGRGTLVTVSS VL: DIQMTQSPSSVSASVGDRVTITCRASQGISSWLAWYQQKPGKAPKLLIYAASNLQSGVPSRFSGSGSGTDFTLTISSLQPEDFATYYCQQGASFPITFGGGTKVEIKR"
quantity_measured = "binding result"
val = "no binding"

[[record]]
binder = "SIRPAB-6 (antibody, human IgG1, kappa, V domains shown) VH: QVQLQESGPGLVKPSQTLSLTCTVSGGSISSGGYYWSWIRQHPGKGLEWIGYIYYSGSTYYNPSLKSRVTISVDTSKNQFSLKLSSVTAADTAVYYCAREGLDGSYGSSAWGQGTLVTVSS VL: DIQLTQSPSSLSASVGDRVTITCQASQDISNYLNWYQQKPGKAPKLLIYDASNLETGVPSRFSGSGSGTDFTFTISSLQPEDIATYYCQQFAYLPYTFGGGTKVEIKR"
quantity_measured = "binding result"
val = "no binding"

[[record]]
binder = "SIRPAB-13 (antibody, human IgG1, kappa, V domains shown) VH: QVQLVQSGAEVKKPGASVKVSCKASGYTFHGYGISWVRQAPGQGLEWMGWISAYSGETNYAQKLQGRVTMTTDTSTSTAYMELRSLRSDDTAVYYCAREAGSSWYDFDLWGRGTLVTVSS VL: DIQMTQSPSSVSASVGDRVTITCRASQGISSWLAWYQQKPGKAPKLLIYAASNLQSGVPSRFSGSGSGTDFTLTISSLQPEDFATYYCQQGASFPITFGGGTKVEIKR"
quantity_measured = "binding result"
val = "no binding"


Prompt: Would you mind telling me what binding result value was observed for SIRPAB-10 (antibody, human IgG1, kappa, V domains shown) VH: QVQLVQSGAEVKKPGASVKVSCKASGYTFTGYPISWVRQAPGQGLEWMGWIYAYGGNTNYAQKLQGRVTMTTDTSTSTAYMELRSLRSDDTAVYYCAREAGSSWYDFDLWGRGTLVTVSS VL: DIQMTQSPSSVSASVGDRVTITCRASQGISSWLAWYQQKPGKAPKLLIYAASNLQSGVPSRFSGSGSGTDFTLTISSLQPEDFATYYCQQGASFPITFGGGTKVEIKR ?
Completion: no binding
